Experiment: Stability of the compound at 30 to 80 degC after 30 mins by UV spectrophotometry
Type: physicochemical
Details: 0.5 h
readout: Stability

COc1ccc2cc3[n+](cc2c1OCCN(CCn1cnc([N+](=O)[O-])c1)Cc1ccc(F)cc1F)CCc1cc2c(cc1-3)OCO2.[Cl-]	Stable
COc1ccc2cc3[n+](cc2c1OCCN(CCn1cnc([N+](=O)[O-])c1)Cc1ccc(Cl)cc1)CCc1cc2c(cc1-3)OCO2.[Cl-]	Stable
COc1ccc2cc3[n+](cc2c1OCCN(CCn1cncc1[N+](=O)[O-])Cc1ccc(Cl)c(Cl)c1)CCc1cc2c(cc1-3)OCO2.[Cl-]	Stable

====

log10 of MIC reference
Tested on: Shigella dysenteriae
Experiment: Antibacterial activity against Shigella dysenteriae after 24 hrs by twofold broth dilution method
Format: functional
Units before log transform: µg/mL; reported quantity: MIC; transform: log10.

Reference set (5 entries):
COc1ccc2cc3[n+](cc2c1OCCN(CCn1cncc1[N+](=O)[O-])Cc1ccc(F)cc1F)CCc1cc2c(cc1-3)OCO2.[Cl-]	0.60
COc1ccc2cc3[n+](cc2c1OCCN(CCn1cncc1[N+](=O)[O-])Cc1ccccc1Cl)CCc1cc2c(cc1-3)OCO2.[Cl-]	0.90
COc1ccc2cc3[n+](cc2c1OCCN(CCn1cnc([N+](=O)[O-])c1)Cc1ccc(F)cc1F)CCc1cc2c(cc1-3)OCO2.[Cl-]	0.60
O=[N+]([O-])c1cn(CCN(CCBr)Cc2ccc(F)cc2F)cn1	1.20
O=[N+]([O-])c1cn(CCN(CCBr)Cc2ccc(Cl)c(Cl)c2)cn1	1.20

Req: For the molecule shown here, `COc1ccc2cc3[n+](cc2c1OCCN(CCn1cnc([N+](=O)[O-])c1)Cc1ccccc1Cl)CCc1cc2c(cc1-3)OCO2.[Cl-]` , give the reported log10 of MIC.
Resp: 1.20

Req: For the molecule shown here, `COc1ccc2cc3[n+](cc2c1OCCN(CCn1cnc([N+](=O)[O-])c1)Cc1cccc(Cl)c1)CCc1cc2c(cc1-3)OCO2.[Cl-]` , give the reported log10 of MIC.
Resp: 2.41

Req: For the molecule shown here, `Cc1ncc([N+](=O)[O-])n1CCN(CCBr)Cc1ccc(F)cc1F` , give the reported log10 of MIC.
Resp: 1.51

Req: For the molecule shown here, `COc1ccc2cc3[n+](cc2c1OCCN(CCn1cncc1[N+](=O)[O-])Cc1ccc(Cl)c(Cl)c1)CCc1cc2c(cc1-3)OCO2.[Cl-]` , give the reported log10 of MIC.
Resp: 0.30

Req: For the molecule shown here, `O=[N+]([O-])c1cn(CCN(CCBr)Cc2cccc(Cl)c2)cn1` , give the reported log10 of MIC.
Resp: 2.41

Req: For the molecule shown here, `O=[N+]([O-])c1cn(CCN(CCBr)Cc2ccc(Cl)cc2)cn1` , give the reported log10 of MIC.
Resp: 2.11

Req: For the molecule shown here, `COc1ccc2cc3[n+](cc2c1OCCN(CCn1cnc([N+](=O)[O-])c1)Cc1ccc(Cl)c(Cl)c1)CCc1cc2c(cc1-3)OCO2.[Cl-]` , give the reported log10 of MIC.
Resp: 0.60

Req: For the molecule shown here, `O=[N+]([O-])c1cncn1CCN(CCBr)Cc1ccc(F)cc1F` , give the reported log10 of MIC.
Resp: 0.90

Req: For the molecule shown here, `O=[N+]([O-])c1cncn1CCN(CCBr)Cc1ccccc1Cl` , give the reported log10 of MIC.
Resp: 1.20

Req: For the molecule shown here, `O=[N+]([O-])c1cn(CCN(CCBr)Cc2ccccc2Cl)cn1` , give the reported log10 of MIC.
Resp: 1.51

Req: For the molecule shown here, `COc1ccc2cc3[n+](cc2c1OCCN(CCn1cnc([N+](=O)[O-])c1)Cc1ccc(Cl)cc1)CCc1cc2c(cc1-3)OCO2.[Cl-]` , give the reported log10 of MIC.
Resp: 2.11
